The values you see were collected from PubChem BioAssay (NCI).

tested on: CAKI-1 renal; assay: NCI-60 one-dose screen, 48 h (100 = growth as untreated, 0 = no growth, -100 = all killed); conditions: 10 µM unless noted
The panel holds about 83,000 compounds, 20% with a hit somewhere; the sample as a whole holds those more often.
PROPERTY: growth (%)
Give the value in % but do not write % after it.

molecule="Cc1ccc(NC(=O)[C@]23CCC(C)(C)CC2C2=CCC4[C@@]5(C)C[C@@H](O)[C@H](O)[C@@](C)(CO)C5CC[C@@]4(C)[C@]2(C)CC3)cc1 (stereo partly specified)" property=growth unit_abbreviation=% reported_value=29.2

Ask: I'd like to know its growth. The molecule in question is "COc1ccc(-c2nc3cc(C)ccc3n2CC(=O)N=Nc2c(O)[nH]c3ccc(Br)cc23)cc1"
Reply: 54.6

Ask: I'd like to know its growth. The molecule in question is C#CCOc1cc(N(CC)CC)ccc1C(C(=O)NC(C)(C)C)N(C(=O)C1CCc2cc(F)ccc2O1)c1ccccc1F (stereo unspecified)
Reply: 22.4
